System: HL-60(TB) leukemia
measurement_notes: NCI tumour cell line growth inhibition, 48 h
Lab note: anything with TGI at or over 6 µM counts as Fulfilled; the rest go in Not fulfilled.

-- ask Does the compound CN(C)c1ccc2nc3ccc(=O)cc-3sc2c1 have recorded TGI that is 6 µM or more?
-- reply Not fulfilled

-- ask Does the compound O=C1c2ccn(CCCCNC(CO)(CO)CO)c2C(=O)c2c1c(O)c1ccccc1c2O have recorded TGI that is 6 µM or more?
-- reply Fulfilled

-- ask Does the compound COc1ccc2c(c1)CC[C@@H]1[C@@H]2CC[C@]2(C)C(=O)/C(=C/c3ccc(OC)c(OC)c3)C[C@@H]12 have recorded TGI that is 6 µM or more?
-- reply Fulfilled

-- ask Does the compound CC(=O)Oc1ccccc1C(=O)N=C1[Se]CCCN1C(=O)c1ccccc1OC(C)=O have recorded TGI that is 6 µM or more?
-- reply Not fulfilled

-- ask Does the compound Cc1cc(C)cc(C(=N)c2ccccc2Cc2cccc3ccccc23)c1 have recorded TGI that is 6 µM or more?
-- reply Fulfilled

-- ask Does the compound Nc1ccncc1/C=C1/C(=O)Nc2ccccc21 have recorded TGI that is 6 µM or more?
-- reply Fulfilled

-- ask Does the compound CCCCCC(C[N+]1(C)CCOCC1)C(=O)/C=C/c1ccccc1 (stereo unspecified) have recorded TGI that is 6 µM or more?
-- reply Fulfilled

-- ask Does the compound N#CSc1nc[nH]c1C(N)=O have recorded TGI that is 6 µM or more?
-- reply Fulfilled

-- ask Does the compound Cc1n(Cc2ccc3ccccc3c2)cc[n+]1Cc1ccc2ccccc2c1 have recorded TGI that is 6 µM or more?
-- reply Not fulfilled

-- ask Does the compound COC(CN(C(=O)c1ccccc1)C1CCC2(SCCS2)c2[nH]c3ccccc3c21)OC (stereo unspecified) have recorded TGI that is 6 µM or more?
-- reply Fulfilled

-- ask Does the compound CC(=O)c1csc2c1C(=O)c1scc(C(C)=O)c1C2=O have recorded TGI that is 6 µM or more?
-- reply Not fulfilled

-- ask Does the compound Cc1c(C2Nc3ccccc3C2C)[nH]c2ccccc12 (stereo unspecified) have recorded TGI that is 6 µM or more?
-- reply Fulfilled

-- ask Does the compound C[C@H]1[C@H](C)CC[C@]2(C)CC[C@]3(C)C(=C[C@@H](O)[C@@H]4[C@@]5(C)[C@H](O)[C@@H](O)[C@H](O)C(C)(C)[C@@H]5CC[C@]43C)[C@H]12 have recorded TGI that is 6 µM or more?
-- reply Fulfilled

-- ask Does the compound NS(=O)(=O)c1ccc(-n2c(-c3cccs3)nc3ccc(I)cc3c2=O)cc1 have recorded TGI that is 6 µM or more?
-- reply Fulfilled

-- ask Does the compound COc1cc2c(cc1OC)C(O)[C@H](Br)C(C)(C)O2 (stereo partly specified) have recorded TGI that is 6 µM or more?
-- reply Fulfilled

-- ask Does the compound Cc1cc(NC(=O)c2ccc(C)c(Nc3nccc(-c4cccnc4)n3)c2)cc(-n2cnc(C)c2)c1 have recorded TGI that is 6 µM or more?
-- reply Fulfilled

-- ask Does the compound O=C(O)c1c(-c2nccc3ccccc23)[nH]c(-c2ccccc2)c1S(=O)(=O)O have recorded TGI that is 6 µM or more?
-- reply Fulfilled

-- ask Does the compound COc1cc(/C=C2\C[C@H]3[C@@H]4CC=C5C[C@@H](O)CC[C@]5(C)[C@H]4CC[C@]3(C)C2=O)cc(OC)c1OC have recorded TGI that is 6 µM or more?
-- reply Not fulfilled

-- ask Does the compound O=C(NCCCNC(=O)c1ccc2c(O)c(O)ccc2c1)c1ccc2c(O)c(O)ccc2c1 have recorded TGI that is 6 µM or more?
-- reply Fulfilled

-- ask Does the compound COc1cc2c(cc1OCc1ccccc1)CNCC2 have recorded TGI that is 6 µM or more?
-- reply Fulfilled
